Hey, just so you know, these numbers are from PubChem BioAssay AID1963431.

- Test system: Rh18 complex spheroid viability, percent test/control
- measurement.notes: Anticancer human tumor Rh18 cell line growth inhibition [Asc];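 further: spheroids exposed to compound for 7 days; 100% = DMSO vehicle control wells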
- condition.parameters: second compound 0.316 µM; first compound 0.1 µM; stronger effect = lower value
Reported viability, T/C by item:
Output spec: scalar in %, unitless text.

Here are 5 compounds together with their reported answers.
COc1c(OCCCN2CCOCC2)ccc2c3n(c(=NC(=O)c4cnc(N)nc4)nc12)CCN3 + Cc1c(S(C)(=O)=O)c(-c2cc(F)cc(N3CCN(c4ccc(NS(=O)(=O)c5ccc(NC(CCN6CCC(C(=O)OCCCP(=O)(O)O)CC6)CSc6ccccc6)c(S(=O)(=O)C(F)(F)F)c5)cc4)CC3)c2)c(-c2ccc(Cl)cc2)n1C(C)C; 1.98
CCN1CCN(Cc2ccc(Nc3ncc(F)c(-c4cc(F)c5nc(C)n(C(C)C)c5c4)n3)nc2)CC1 + CNC(C)C(=O)NC1CN(S(=O)(=O)c2cccc(S(=O)(=O)N3CCC4CCC(C(=O)NC(c5ccccc5)c5ccccc5)N4C(=O)C(NC(=O)C(C)NC)C3)c2)CCC2CCC(C(=O)NC(c3ccccc3)c3ccccc3)N2C1=O; 35.7
CNC(C)C(=O)NC1CN(S(=O)(=O)c2cccc(S(=O)(=O)N3CCC4CCC(C(=O)NC(c5ccccc5)c5ccccc5)N4C(=O)C(NC(=O)C(C)NC)C3)c2)CCC2CCC(C(=O)NC(c3ccccc3)c3ccccc3)N2C1=O (stereo unspecified) + Cc1c(S(C)(=O)=O)c(-c2cc(F)cc(N3CCN(c4ccc(NS(=O)(=O)c5ccc(NC(CCN6CCC(C(=O)OCCCP(=O)(O)O)CC6)CSc6ccccc6)c(S(=O)(=O)C(F)(F)F)c5)cc4)CC3)c2)c(-c2ccc(Cl)cc2)n1C(C)C; 5.52
Cn1ncnc1[C@H]1c2n[nH]c(=O)c3cc(F)cc(c23)N[C@@H]1c1ccc(F)cc1 + Cc1c(S(C)(=O)=O)c(-c2cc(F)cc(N3CCN(c4ccc(NS(=O)(=O)c5ccc(NC(CCN6CCC(C(=O)OCCCP(=O)(O)O)CC6)CSc6ccccc6)c(S(=O)(=O)C(F)(F)F)c5)cc4)CC3)c2)c(-c2ccc(Cl)cc2)n1C(C)C; 12.6
C=C(F)C(=O)N1CCN(c2nc(OCC3CCCN3C)nc3c2CCN(c2cccc4cccc(Cl)c24)C3)CC1CC#N (stereo unspecified) + Cc1c(S(C)(=O)=O)c(-c2cc(F)cc(N3CCN(c4ccc(NS(=O)(=O)c5ccc(NC(CCN6CCC(C(=O)OCCCP(=O)(O)O)CC6)CSc6ccccc6)c(S(=O)(=O)C(F)(F)F)c5)cc4)CC3)c2)c(-c2ccc(Cl)cc2)n1C(C)C; 8.95

Alright, here's another compound for you.
q: Using known records, supply viability, T/C for NC1CCC(NC2CC2c2ccccc2)CC1 (stereo unspecified) + CNC(C)C(=O)NC1CN(S(=O)(=O)c2cccc(S(=O)(=O)N3CCC4CCC(C(=O)NC(c5ccccc5)c5ccccc5)N4C(=O)C(NC(=O)C(C)NC)C3)c2)CCC2CCC(C(=O)NC(c3ccccc3)c3ccccc3)N2C1=O
a: 59.4

----------
Reported viability, T/C by item:
- System: Rh18 complex spheroid viability, percent test/control
- measurement.notes: Anticancer human tumor Rh18 cell line growth inhibition [Asc];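 further: spheroids exposed to compound for 7 days; 100% = DMSO vehicle control wells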
- condition.parameters: second compound 10 µM; first compound 0.00316 µM; stronger effect = lower value

Here are 2 compounds together with their reported answers.
COc1c(OCCCN2CCOCC2)ccc2c3n(c(=NC(=O)c4cnc(N)nc4)nc12)CCN3 + Cc1c(S(C)(=O)=O)c(-c2cc(F)cc(N3CCN(c4ccc(NS(=O)(=O)c5ccc(NC(CCN6CCC(C(=O)OCCCP(=O)(O)O)CC6)CSc6ccccc6)c(S(=O)(=O)C(F)(F)F)c5)cc4)CC3)c2)c(-c2ccc(Cl)cc2)n1C(C)C; 3.54%
NC1CCC(NC2CC2c2ccccc2)CC1 (stereo not drawn) + Cc1c(S(C)(=O)=O)c(-c2cc(F)cc(N3CCN(c4ccc(NS(=O)(=O)c5ccc(NC(CCN6CCC(C(=O)OCCCP(=O)(O)O)CC6)CSc6ccccc6)c(S(=O)(=O)C(F)(F)F)c5)cc4)CC3)c2)c(-c2ccc(Cl)cc2)n1C(C)C; 3%

Alright, here's another compound for you.
q: Using known records, supply viability, T/C for CNC(C)C(=O)NC1CN(S(=O)(=O)c2cccc(S(=O)(=O)N3CCC4CCC(C(=O)NC(c5ccccc5)c5ccccc5)N4C(=O)C(NC(=O)C(C)NC)C3)c2)CCC2CCC(C(=O)NC(c3ccccc3)c3ccccc3)N2C1=O (stereo not drawn) + Cc1c(S(C)(=O)=O)c(-c2cc(F)cc(N3CCN(c4ccc(NS(=O)(=O)c5ccc(NC(CCN6CCC(C(=O)OCCCP(=O)(O)O)CC6)CSc6ccccc6)c(S(=O)(=O)C(F)(F)F)c5)cc4)CC3)c2)c(-c2ccc(Cl)cc2)n1C(C)C
a: 5.31%

----------
- Tested on: Rh18 complex spheroid viability, percent test/control
- measurement.notes: Anticancer human tumor Rh18 cell line growth inhibition [Asc];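 further: spheroids exposed to compound for 7 days; 100% = DMSO vehicle control wells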
- condition.parameters: second compound 3 µM; first compound 0.1 µM; stronger effect = lower value
recorded.endpoint: viability, T/C (%)
Output spec: scalar in %, unitless text.

C=CC(=O)N1CCN(c2nc(=O)n(-c3c(C)ccnc3C(C)C)c3nc(-c4c(O)cccc4F)c(F)cc23)C(C)C1 (stereo not given) + CCN1C(C(=O)NC23CCC(C(=O)O)(CC2)CC3)C(c2cccc(Cl)c2F)C2(C(=O)Nc3cc(Cl)ccc32)C12CCCCC2; 10
CNC(C)C(=O)NC1CN(S(=O)(=O)c2cccc(S(=O)(=O)N3CCC4CCC(C(=O)NC(c5ccccc5)c5ccccc5)N4C(=O)C(NC(=O)C(C)NC)C3)c2)CCC2CCC(C(=O)NC(c3ccccc3)c3ccccc3)N2C1=O (stereo not given) + CCN1C(C(=O)NC23CCC(C(=O)O)(CC2)CC3)C(c2cccc(Cl)c2F)C2(C(=O)Nc3cc(Cl)ccc32)C12CCCCC2; 9.34
O=C(c1cc(Cc2n[nH]c(=O)c3ccccc23)ccc1F)N1CCN(C(=O)C2CC2)CC1 + CCN1C(C(=O)NC23CCC(C(=O)O)(CC2)CC3)C(c2cccc(Cl)c2F)C2(C(=O)Nc3cc(Cl)ccc32)C12CCCCC2; 8.17
Cn1ncnc1[C@H]1c2n[nH]c(=O)c3cc(F)cc(c23)N[C@@H]1c1ccc(F)cc1 + CCN1C(C(=O)NC23CCC(C(=O)O)(CC2)CC3)C(c2cccc(Cl)c2F)C2(C(=O)Nc3cc(Cl)ccc32)C12CCCCC2; 7.12

q: Using known records, supply viability, T/C for C=C(F)C(=O)N1CCN(c2nc(OCC3CCCN3C)nc3c2CCN(c2cccc4cccc(Cl)c24)C3)CC1CC#N (stereo not given) + CCN1C(C(=O)NC23CCC(C(=O)O)(CC2)CC3)C(c2cccc(Cl)c2F)C2(C(=O)Nc3cc(Cl)ccc32)C12CCCCC2
a: 7.78

q: Using known records, supply viability, T/C for C#Cc1c(F)ccc2cc(O)cc(-c3ncc4c(N5CC6CCC(C5)N6)nc(OCC56CCCN5CC(F)C6)nc4c3F)c12 (stereo not given) + CCN1C(C(=O)NC23CCC(C(=O)O)(CC2)CC3)C(c2cccc(Cl)c2F)C2(C(=O)Nc3cc(Cl)ccc32)C12CCCCC2
a: 12.6

q: Using known records, supply viability, T/C for CCN1CCN(Cc2ccc(Nc3ncc(F)c(-c4cc(F)c5nc(C)n(C(C)C)c5c4)n3)nc2)CC1 + CCN1C(C(=O)NC23CCC(C(=O)O)(CC2)CC3)C(c2cccc(Cl)c2F)C2(C(=O)Nc3cc(Cl)ccc32)C12CCCCC2
a: 7.8

q: Using known records, supply viability, T/C for NC1CCC(NC2CC2c2ccccc2)CC1 (stereo not given) + CCN1C(C(=O)NC23CCC(C(=O)O)(CC2)CC3)C(c2cccc(Cl)c2F)C2(C(=O)Nc3cc(Cl)ccc32)C12CCCCC2
a: 9.99

q: Using known records, supply viability, T/C for O=C(c1ccc(F)c(F)c1Nc1ccc(I)cc1F)N1CC(O)([C@@H]2CCCCN2)C1 + CCN1C(C(=O)NC23CCC(C(=O)O)(CC2)CC3)C(c2cccc(Cl)c2F)C2(C(=O)Nc3cc(Cl)ccc32)C12CCCCC2
a: 2.33

q: Using known records, supply viability, T/C for COc1c(OCCCN2CCOCC2)ccc2c3n(c(=NC(=O)c4cnc(N)nc4)nc12)CCN3 + CCN1C(C(=O)NC23CCC(C(=O)O)(CC2)CC3)C(c2cccc(Cl)c2F)C2(C(=O)Nc3cc(Cl)ccc32)C12CCCCC2
a: 3.01

----------
- System: Rh18 complex spheroid viability, percent test/control
- measurement.notes: Anticancer human tumor Rh18 cell line growth inhibition [Asc];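 further: spheroids exposed to compound for 7 days; 100% = DMSO vehicle control wells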
- condition.parameters: second compound 0.1 µM; first compound 3.16 µM; stronger effect = lower value
recorded.endpoint: viability, T/C

Here are 2 compounds together with their reported answers.
O=C(c1cc(Cc2n[nH]c(=O)c3ccccc23)ccc1F)N1CCN(C(=O)C2CC2)CC1 + CNC(C)C(=O)NC1CN(S(=O)(=O)c2cccc(S(=O)(=O)N3CCC4CCC(C(=O)NC(c5ccccc5)c5ccccc5)N4C(=O)C(NC(=O)C(C)NC)C3)c2)CCC2CCC(C(=O)NC(c3ccccc3)c3ccccc3)N2C1=O; 11.1%
C#Cc1c(F)ccc2cc(O)cc(-c3ncc4c(N5CC6CCC(C5)N6)nc(OCC56CCCN5CC(F)C6)nc4c3F)c12 (stereo not drawn) + CNC(C)C(=O)NC1CN(S(=O)(=O)c2cccc(S(=O)(=O)N3CCC4CCC(C(=O)NC(c5ccccc5)c5ccccc5)N4C(=O)C(NC(=O)C(C)NC)C3)c2)CCC2CCC(C(=O)NC(c3ccccc3)c3ccccc3)N2C1=O; 50.9%

Alright, here's another compound for you.
q: Using known records, supply viability, T/C for C=CC(=O)N1CCN(c2nc(=O)n(-c3c(C)ccnc3C(C)C)c3nc(-c4c(O)cccc4F)c(F)cc23)C(C)C1 (stereo not drawn) + CNC(C)C(=O)NC1CN(S(=O)(=O)c2cccc(S(=O)(=O)N3CCC4CCC(C(=O)NC(c5ccccc5)c5ccccc5)N4C(=O)C(NC(=O)C(C)NC)C3)c2)CCC2CCC(C(=O)NC(c3ccccc3)c3ccccc3)N2C1=O
a: 46.4%
